- Tested on: PPARa:RXRa (NR concentration 270 nM, RXRa partner concentration 90 nM)
- Procedure Details: PBM binding z-score (relative to random genomic background probes); higher = stronger binding; sequences stand for … in GC…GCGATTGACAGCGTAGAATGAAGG
Hi, to clarify the labels: MET covers PBM binding z-score from 4 upward, NOT MET covers anything below 4.

Worked examples follow.
GCTAGCAGGCCATTTGGGTCAGTCAATGACGGGC: NOT MET
CGAACTAGGTCATTGCCAGGACAGTGAATAGTAA: MET
TGTCAAAGTTCAAAGGTAACGAAAGTATCCACAC: MET
AATACAGGGACACTAGGCCAGAGTAGGTACGAAT: NOT MET
AGTCAAAGTTCAGGACGAGGTGACGTAAAGCACG: NOT MET
ATCTCTAGGGAAAGTTCAGTGAAAGATCGATAGA: NOT MET
CGTCAAAGTTGAACTAAGGTAACGTAAAGCACGC: NOT MET
ACTATTAGTTGACTTAGAGCAACCGATACGACGC: NOT MET
CCTAGCAGGCCAATCTGGGTCACTGAAGGCTTGA: NOT MET
TCGAGTAGGTTACCAATGCGGCATTCAGCTTTCT: NOT MET

Check this sequence for PBM binding z-score at or above 4: ATCTTTAGGTAACCAAGTTCAGTGAATGCCGAAC
NOT MET

Say whether TCTCGGAGGCCACGAAGGTCAGAGCTTTCCAGAG shows PBM binding z-score of 4 or more.
NOT MET

Decide: PBM binding z-score of ACTAGCAGGCCAAGGGTCACACAAGATTAGTCCG >= 4?
MET

# bool: PBM binding z-score of CGTCAAAGTTCAACTAAGGTGACGTAAAGCACGC >= 4
MET

Has TCTTGTAGATCAAAGGTTACGAAAGCCGAAGCCT a recorded PBM binding z-score greater than or equal to 4?
MET

Please indicate if the recorded PBM binding z-score for CCGACTGGGGCAGAAAGGTTACCGTACCATCCGG meets or exceeds 4.
NOT MET

Does the reported PBM binding z-score for CCTACTGGACCATCAGGTCATTGATATCAACGTT fall at or above the 4 mark?
NOT MET

Item CCTAGCTGGTCAAGGTCACACACGCTATAGGTAC with PBM binding z-score of 4 or above?
MET

Reported PBM binding z-score at or above 4? AGAATGAGGTTAAGATCAGAGAAACAGAATACAT
NOT MET

Confirm if PBM binding z-score reported for the sequence CCTAGTTGGTCAAGGTCAGACACGCTATAGGTAC is 4 or above.
NOT MET

Please tell me: is the sequence ATATGTAGGTTACATCCGGGTCCTTCAGGCTATG at or over 4 in terms of PBM binding z-score?
NOT MET

Kindly determine if PBM binding z-score recorded for TAGCCTAGGTCATTCAGAGGCCAGTATAGAAAGC is above or exactly 4.
NOT MET

Determine whether this sequence has PBM binding z-score no lower than 4: TTACCAAGGTGAAGGTCGTCGATCCCTCTGTAGA
NOT MET

Check the entry ATCTCTAGGTTAGACTCAGTTCAGTGAAGAACGC : does PBM binding z-score equal or exceed 4?
NOT MET

Please indicate if the recorded PBM binding z-score for TCTTGTAGATCAATAGACGTTAAGAAAGTGCGCT meets or exceeds 4.
NOT MET

---

- System: PPARg:RXRa 270nM:90nM, anti-RXR (NR concentration 270 nM, RXRa partner concentration 90 nM)
- Procedure Details: PBM binding z-score (relative to random genomic background probes); higher = stronger binding; sequences stand for … in GC…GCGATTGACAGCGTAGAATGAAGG
Quantity Name: PBM binding z-score
Give the value as a plain number.

ATATGTAGGTTACATCCGTGTCATTCAGGCTATG: 4.33
TCGAGTAAGTTAGGGGCATTCAGAATGGCGTCGA: 0.338
AGAATGAGGTTATACGTAGATTAGGGAAGAAAGT: 2.4

Note down PBM binding z-score recorded for CAAACTAGGCCAAGAGGTCAAAGTCCGCTTCCCG
6.66

Output measured PBM binding z-score for this item: CCTATTAGTTGCCCATAAGGGCAACCGAAGCTCG
0.281

Give reported PBM binding z-score value for CGTCCAAGGTCAGAAGGTCAGTGAAAGCGACGTG
4.51

---

- Tested on: RARa homodimer (NR concentration 270 nM)
- Procedure Details: PBM binding z-score (relative to random genomic background probes); higher = stronger binding; sequences stand for … in GC…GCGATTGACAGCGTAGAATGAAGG
Think of 0.2 as a floor: if PBM binding z-score stands on it or above, it is class 1; beneath it, class 0.

ACTAGTTGGTCAGCTCAGGTCACACACAATTCGG: class 1
GCTTGTAGATCAAGGTTAAGAATGACTAAGCTAA: class 0
TCTTGTAGAACAACAGGAGGTTAAGAAAGATCGA: class 0
CCTACTGGGCCACAAAAGGTCATTGATTCAGTGA: class 1
TGTCAAAGTTCAAAGGTAACGTATGTATCCACAC: class 1
GATACAGAGTCAAGGCCAGAGTACGCGTATTGAT: class 0
AATACAGGGTTATCGTAGGCCAGAGTACGCACAG: class 1
AGTCAAAGTTCAGGCCGAGGTAACGTAAAGCACG: class 0

Hi, just wondering whether CAAACTAGGTCACCGGAATGTCAAAGTCCGCATG shows PBM binding z-score of 0.2 or higher.
class 1

Please tell me: is the sequence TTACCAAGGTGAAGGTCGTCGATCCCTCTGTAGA at or over 0.2 in terms of PBM binding z-score?
class 0

Exam item: decide whether the reported PBM binding z-score for CGAACTAGGTCAGAACAGGACTGTGAAGGATGAT is at least 0.2.
class 0

Exam item: decide whether the reported PBM binding z-score for TCTGCTAGGTCAACGATGGTCATCTAATCTGCTA is at least 0.2.
class 0

Does the reported PBM binding z-score for CGAACTAGGTCAGAACAGGACGGTGAAGGATGAT fall at or above the 0.2 mark?
class 0

Please tell me: is the sequence CCTGCTAGGTGATGGTCAGCTAATCTACAGTATG at or over 0.2 in terms of PBM binding z-score?
class 0

---

- System: PPARg DBDmut:RXRa IVT, anti-PPARg (DBD mutation: PPARg1 K132A/R137A, NR concentration 270 nM, RXRa partner concentration 90 nM)
- Procedure Details: PBM binding z-score (relative to random genomic background probes); higher = stronger binding; sequences stand for … in GC…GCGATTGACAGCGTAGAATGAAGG
Assign classes using reported PBM binding z-score values and the ranges one: < -0.2; two: ≥ -0.2 and < 0.5; three: ≥ 0.5, please.

Quick check: band for TCATATCGGTAATACAGGTGAAAGTCGGCATCTA
three

Could you place ATCTCTAGGTAACAAGTTCAATGAAAGAGAGGAC in its proper category? Many thanks.
three

State the band of GATACAGGGTCAGGGCCAGAGTACGCGTATTGAT
two

For this sequence, which bin applies? TCTTGTAGATAAAAGGTTAAGAAAGCCGAAGCCT
two

Which band does ACTAGTTGGTCAGCTGTGGTCACACACAATTCGG fall in?
two

Form: Item = TCTTGTAGATCAACAGGACGTTAAGAAAGATCGA ; Class = ?
three

Record GCTGCTAGGTCAACTGATGGGCAGCTAAAGCTCG — which class?
one

---

- Test system: RARa homodimer (NR concentration 270 nM)
- Procedure Details: PBM binding z-score (relative to random genomic background probes); higher = stronger binding; sequences stand for … in GC…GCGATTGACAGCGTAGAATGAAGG
Catalogue of PBM binding z-score readings, one per entry.
Kindly provide the number alone.

TCTACCAGGCCAGAGGGTCACTCAAGAGGTACGG: 0.116
ACAGACAGGTGAGTGCAGGTAACTCAGCTGGACG: -0.183
CGAACTAGGTCATACAGGACAGTGAATACATTGA: 0.758
GCAACTGGGGCATCAGCAGGTTACCATAACTTAA: -0.393
TATACAGGGCCAAAGGCCAGAGTACGAATGTCGA: -0.305
CTCGAAAGGTGGGTTGAGGTGAGTATACGGATAA: 0.749
CGTCCAGGGTCAATGCTAGGTCAGTGAAAGCATT: 0.75
CGTCCAAGGTCAATGCTAAGTCAGTGAAAGCATT: 0.642
TCATATAGGTAAAGGTAAAAGTCGAACGATATGA: 1.3
GCGAGTGGGGCAAAGCAGGTTACCATAAGGTTGG: 0.0402

Specify reported PBM binding z-score for the sequence shown: ACTATGAGTTGAGACGAGGGCAACCGATAGGTTG
-0.00647

State, in one line, measured PBM binding z-score of GCTAGCAGGCCATTTGGGTCCCTCAATGACGGGC
-1.25

Identify measured PBM binding z-score corresponding to CGAACTTGGTCATTGACAGGACAGTGAATAGTAA
0.507
